Target: T1, IL-36R naturally expressed on OVCAR8 cells and on normal human epidermal keratinocytes (NHK cells) (human, UniProt Q9HB29 20-575)
T1 sequence (looked up): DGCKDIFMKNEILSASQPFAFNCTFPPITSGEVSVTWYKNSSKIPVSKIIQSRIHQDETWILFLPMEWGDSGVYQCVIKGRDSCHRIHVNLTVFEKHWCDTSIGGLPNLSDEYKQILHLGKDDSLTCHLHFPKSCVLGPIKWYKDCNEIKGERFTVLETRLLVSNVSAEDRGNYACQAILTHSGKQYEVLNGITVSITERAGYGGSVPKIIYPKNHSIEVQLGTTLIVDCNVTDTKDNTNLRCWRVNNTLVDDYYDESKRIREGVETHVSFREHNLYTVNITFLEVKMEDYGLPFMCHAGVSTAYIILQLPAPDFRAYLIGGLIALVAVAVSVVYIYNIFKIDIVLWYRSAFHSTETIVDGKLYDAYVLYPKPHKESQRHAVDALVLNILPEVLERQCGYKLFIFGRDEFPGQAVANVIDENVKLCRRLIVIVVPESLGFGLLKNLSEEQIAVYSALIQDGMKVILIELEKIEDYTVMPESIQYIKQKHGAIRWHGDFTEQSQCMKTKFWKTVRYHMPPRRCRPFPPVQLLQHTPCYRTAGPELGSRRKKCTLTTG
Assay: cell-based or functional assay
Each item that follows carries a reported Maximum inhibition rate %; hIL36α; IL-8 production.
outcome measure: Maximum inhibition rate %; hIL36α; IL-8 production (%)

{"binder": "hz84C4-1.4 (antibody, human IgG4 S228P, kappa, V domains shown, Humanized, human IgG4 / kappa) VH: QVQLVQSGAEVKKPGASVKVSCKASGYYFTSYWMNWVRQAPGQGLEWMGMIHPYDSETRLAQKFKGRVTMTVDKSTSTVYMELSSLRSEDTAVYYCASSTTAFAYWGQGTLVTVSS VL: DIQMTQSPSSLSASVGDRVTITCRASQDIGNALNWYQQKPGKAPKRLIYATSSLDPGVPSRFSGSRSGTDFTLTISSLQPEDFATYYCLQYASSPYTFGQGTKVEIKR", "obs value": 99.5}
{"binder": "hz84C4-1.3 (antibody, human IgG4 S228P, kappa, V domains shown, Humanized, human IgG4 / kappa) VH: QVQLVQSGAEVKKPGASVKVSCKASGYFFTSYWMNWVRQAPGQGLEWMGMIYPYDSETRYAQKFQGRVTMTVDKSTSTVYMELSSLRSEDTAVYYCASSTTAFAYWGQGTLVTVSS VL: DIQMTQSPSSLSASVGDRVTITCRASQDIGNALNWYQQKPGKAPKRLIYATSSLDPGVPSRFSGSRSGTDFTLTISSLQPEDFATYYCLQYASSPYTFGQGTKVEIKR", "obs value": 20.6}
{"binder": "hz84C4-2.4 (antibody, human IgG4 S228P, kappa, V domains shown, Humanized, human IgG4 / kappa) VH: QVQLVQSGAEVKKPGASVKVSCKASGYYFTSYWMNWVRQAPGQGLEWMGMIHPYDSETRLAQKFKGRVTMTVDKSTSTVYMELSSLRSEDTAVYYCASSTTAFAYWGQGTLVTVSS VL: DIQMTQSPSSLSASVGDRVTITCRASQDIGNALNWLQQKPGKAPKRLIYATSSLDPGVPSRFSGSRSGTDYTLTISSLQPEDFATYYCLQYASSPYTFGQGTKVEIKR", "obs value": 99.5}
